- experimental.target: feline FcRn complex (FcRn-α subunit and β-microglobulin) (feline)
- assay.text: SPR (Biacore), FcRn on SA chip, pH 7.4
observed.property: Kd (nM)
Give bare numbers, in nM.

feline IgG1a mutant ID No. 323: S428Y, D312P, S434Y, D399M, D401R, T403R (antibody, part only; not given: Variable domains, not shown: another chain or arm of the molecule) constant: ASTTAPSVFPLAPSCGTTSGATVALACLVLGYFPEPVTVSWNSGALTSGVHTFPAVLQASGLYSLSSMVTVPSSRWLSDTFTCNVAHPPSNTKVDKTVRKTDHPPGPKPCDCPKCPPPEMLGGPSIFIFPPKPKDTLSISRTPEVTCLVVDLGPDDSDVQITWFVDNTQVYTAKTSPREEQFNSTYRVVSVLPILHQPWLKGKEFKCKVNSKSLPSPIERTISKAKGQPHEPQVYVLPPAQEELSRNKVSVTCLIKSFHPPDIAVEWEITGQPEPENNYRTTPPQLMSRGRYFVYSKLSVDRSHWQRGNTYTCSVYHEALHYHHTQKSLTQSPGK : 1300

Note: attention shifts to another entry.
Kd measured on feline IgG1a mutant ID No. 343: S252Y, S428M, S434F, D399M (antibody, part only; not given: Variable domains, not shown: another chain or arm of the molecule; small tags and cut ends) constant: ASTTAPSVFPLAPSCGTTSGATVALACLVLGYFPEPVTVSWNSGALTSGVHTFPAVLQASGLYSLSSMVTVPSSRWLSDTFTCNVAHPPSNTKVDKTVRKTDHPPGPKPCDCPKCPPPEMLGGPSIFIFPPKPKDTLYISRTPEVTCLVVDLGPDDSDVQITWFVDNTQVYTAKTSPREEQFNSTYRVVSVLPILHQDWLKGKEFKCKVNSKSLPSPIERTISKAKGQPHEPQVYVLPPAQEELSRNKVSVTCLIKSFHPPDIAVEWEITGQPEPENNYRTTPPQLMSDGTYFVYSKLSVDRSHWQRGNTYTCSVMHEALHFHHTQKSLTQSPGK = 10.9
